test.summary: differential killing of epithelial or mesenchymal cells, primary screen, imaging, PC-3E GFP, TEM4-18 mCherry, co-culture (AID 1345086);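 note: normalised mesenchymal count divided by normalised epithelial count so high means epithelial killing; cells exposed to compound for 72 h before imaging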
assay.context: imaging cell counts, at 1 µM, actives lie on both sides, counts scaled to control wells, 1 = unselective
reported.metric: red/green cell ratio (normalised)
Reply briefly: the number, and no unit.

q: I'd like to know its red/green cell ratio (normalised). The compound in question is `COC1=CC(=O)C(C(=O)c2ccccc2)=CC1=O`
a: 1.01

q: I'd like to know its red/green cell ratio (normalised). The compound in question is OC(CCN1CCCCC1)(c1ccccc1)C1CC2C=CC1C2 (centres undefined)
a: 0.98

q: I'd like to know its red/green cell ratio (normalised). The compound in question is `Cc1ccc(N(CC2=NCCN2)c2cccc(O)c2)cc1`
a: 1

q: I'd like to know its red/green cell ratio (normalised). The compound in question is `CC[C@@H](CO)NCCN[C@@H](CC)CO`
a: 0.98

----------
test.summary: survival rescue of mitochondrial mutant cells in low glucose, primary screen, MELAS cybrids, Rieske KO mouse fibroblasts, CellTiter-Glo (AID 1508586);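 note: z relative to plate mean and SD of compound and empty wells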
assay.context: Rieske KO mouse fibroblast survival, CellTiter-Glo 72 h
# label = t if z-score < 0.1 else f

q: Here's an entry: NC1=NCC2c3ccccc3Cc3ccccc3N12 (stereo unspecified) . Is its z-score below 0.1?
a: t

q: Here's an entry: C[N+]1(C)CCC(OC(=O)C(O)(c2ccccc2)C2CCCC2)C1 (stereo unspecified) . Is its z-score below 0.1?
a: f

q: Here's an entry: CC(C(=O)O)c1ccc2c(c1)CC(=O)c1ccccc1S2 (stereo unspecified) . Is its z-score below 0.1?
a: f

q: Here's an entry: `NC(CO)(CO)CO` . Is its z-score below 0.1?
a: t

q: Here's an entry: NC(=O)OCC(O)COc1ccc(Cl)cc1 (stereo unspecified) . Is its z-score below 0.1?
a: t

q: Here's an entry: COC(=O)C(c1ccccc1Cl)N1CCc2sccc2C1 (stereo unspecified) . Is its z-score below 0.1?
a: f

q: Here's an entry: `C[C@H]1C[C@H]2[C@@H]3CCC4=CC(=O)C=C[C@]4(C)[C@@]3(F)[C@@H](O)C[C@]2(C)[C@@]1(O)C(=O)CO` . Is its z-score below 0.1?
a: t

q: Here's an entry: `O=c1c(-c2ccc(O)cc2)coc2cc(O)ccc12` . Is its z-score below 0.1?
a: t

q: Here's an entry: `C[C@]12CC[C@H]3[C@@H](CCC4=CC(=O)CC[C@@]43C)[C@@H]1CC[C@@H]2C(=O)CO` . Is its z-score below 0.1?
a: f

q: Here's an entry: `Cc1ncc(C[n+]2csc(CCO)c2C)c(N)n1` . Is its z-score below 0.1?
a: f

q: Here's an entry: `CCOc1ccc2nc(S(N)(=O)=O)sc2c1` . Is its z-score below 0.1?
a: f

q: Here's an entry: `O=c1cc(O)c(Cl)c[nH]1` . Is its z-score below 0.1?
a: t

q: Here's an entry: `CCC(=O)OCC(=O)[C@@]1(OC(=O)CC)[C@@H](C)C[C@H]2[C@@H]3CCC4=CC(=O)C=C[C@]4(C)[C@@]3(Cl)[C@@H](O)C[C@@]21C` . Is its z-score below 0.1?
a: f

q: Here's an entry: `CN(C)CCCO[C@@H]1[C@H]2OC(C)(C)O[C@H]2O[C@@H]1[C@H](O)CO` . Is its z-score below 0.1?
a: t

q: Here's an entry: COC(=O)C1=C(C)NC(C)=C(C(=O)OC(C)(C)CN(C)CCC(c2ccccc2)c2ccccc2)C1c1cccc([N+](=O)[O-])c1 (stereo unspecified) . Is its z-score below 0.1?
a: t

q: Here's an entry: OC(CCN1CCCCC1)(c1ccccc1)C1CC2C=CC1C2 (stereo unspecified) . Is its z-score below 0.1?
a: f
